Entries and their measured inhibition at 25 min, 0.3 µM follow.
- measurement target: CYP1A1 (Homo sapiens, UniProt P04798)
- Sequence (P04798 whole entry): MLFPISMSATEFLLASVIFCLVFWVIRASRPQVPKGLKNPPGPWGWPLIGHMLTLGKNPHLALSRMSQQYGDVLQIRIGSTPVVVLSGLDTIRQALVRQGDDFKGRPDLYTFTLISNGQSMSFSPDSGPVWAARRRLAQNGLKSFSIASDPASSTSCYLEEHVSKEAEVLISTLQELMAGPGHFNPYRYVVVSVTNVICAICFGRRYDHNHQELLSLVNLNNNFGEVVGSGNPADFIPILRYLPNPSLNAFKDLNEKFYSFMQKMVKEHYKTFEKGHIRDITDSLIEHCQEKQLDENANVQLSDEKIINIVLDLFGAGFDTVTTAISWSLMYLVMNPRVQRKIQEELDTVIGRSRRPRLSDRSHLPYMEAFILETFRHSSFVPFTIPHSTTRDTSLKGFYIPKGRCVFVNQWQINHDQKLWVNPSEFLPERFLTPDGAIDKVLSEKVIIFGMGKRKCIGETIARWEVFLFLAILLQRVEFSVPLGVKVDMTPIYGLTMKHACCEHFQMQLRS
- protocol details: Inhibition of recombinant human CYP1A1 at 0.3 uM incubated for 25 mins using 7-ethyl-O-resorufin substrate in presence of NADPH regenerating system by fluorescence based ethoxyresorufin-O-deethylase assay
- Format: ADME
- conditions: recombinant human CYP1A1, probe 7-ethyl-O-resorufin (7-ethoxyresorufin)
measure: inhibition at 25 min, 0.3 µM (%)

input smiles	recorded result
COc1ccc(-c2cc3c(cc2OC)CC[C@@H]2[C@@H]3CC[C@]3(C)C(=O)CC[C@@H]23)cc1	1
C#C[C@]1(O)CC[C@H]2[C@@H]3CCc4cc(O)c(-c5ccc(OC)cc5)cc4[C@H]3CC[C@@]21C	7
C[C@]12CC[C@@H]3c4cc(-c5ccc(F)cc5)c(O)cc4CC[C@H]3[C@@H]1CC[C@@H]2O	3
C[C@]12CC[C@@H]3c4cc(-c5ccncc5)c(O)cc4CC[C@H]3[C@@H]1CC[C@@H]2O	5
